Measured values drawn from patent US8129532B2 for this set.

Assay Comment: One-photon absorption and emission spectra in multilamellar lipid vesicles, water and ethanol
Assay type: physicochemical
Condition Context: ethanol
Source text: […] The column indicating relative signal change for one-photon fluorescence also lists the excitation light source used and the lower bounds of the long-pass emission detected. Absorption and emission spectra were obtained for a series of dyes with different acceptors: pyridinium (PY-1261), quinolinium (PY-212), and acridinium (PY-2240).
The reader will find reported Absorbance ethanol values listed item by item below.
Unit nm implied. Number only.

Record excerpt, results attached:
INPUT: Which Absorbance ethanol value belongs to CCCN(CCC)c1ccc(-c2ccc(/C=C/c3cc[n+](CCC[N+](CC)(CC)CC)cc3)s2)s1 [PY-1286, Di-3-BTEPPTEA] ?
OUTPUT: 616

INPUT: Which Absorbance ethanol value belongs to CCN(CC)c1ccc(-c2ccc(-c3ccc(/C=C/c4cc[n+](CCC[N+](CC)(CC)CC)cc4)s3)s2)s1 [PY-1268] ?
OUTPUT: 588

INPUT: Which Absorbance ethanol value belongs to CCCCN(CCCC)c1ccc2cc(/C=C/C=C/c3cc[n+](CCC[N+](C)(C)C)c4ccccc34)ccc2c1.[Br-].[Br-] [di-4-ANBDQPQ, Di-4-ANBDQPQ, reference compound] ?
OUTPUT: 603

Next:
INPUT: Which Absorbance ethanol value belongs to CN(C)c1ccc(/C=C/c2ccc(/C=C/c3cc[n+](CCC[N+](C)(C)C)c4ccccc34)o2)cc1 [JPW-3080] ?
OUTPUT: 630

INPUT: Which Absorbance ethanol value belongs to CCN(CC)c1ccc2cc(/C=C/C=C/c3cc[n+](CCC[N+](C)(C)C)c4ccccc34)ccc2c1.[Br-].[Br-] [JPW-4090, Di-2-ANBDQPQ] ?
OUTPUT: 584

INPUT: Which Absorbance ethanol value belongs to CCCCN(CCCC)c1ccc(-c2ccc(/C=C/c3cc[n+](CCC[N+](CC)(CC)CC)cc3)s2)s1 [PY-1266, Di-4-BTEPPTEA] ?
OUTPUT: 624

INPUT: Which Absorbance ethanol value belongs to CCN(CC)c1ccc(-c2ccc(/C=C/c3cc[n+](CCC[N+](CC)(CC)CC)cc3)s2)s1 [PY-1261, Di-2-BTEPPTEA] ?
OUTPUT: 614
